Hey, just so you know, these numbers are from patent US20110118447A1.

target: binding partner of C5A (XPA23); assay: Biacore K-off
REPORTED_PROPERTY: fold difference in affinity vs original

BINDER: C5A (XPA23) VH K31D (antibody, V domains shown) VH: EVQLLESGGGLVQPGGSLRLSCAASGFTFSDYFMFWVRQAPGKGLEWVSVISPSGGMTRYADSVKGRFTISRDNSKNTLYLQMNSLRAEDTAVYYCARVGYGGNSDYWGQGTLVTVSS VL: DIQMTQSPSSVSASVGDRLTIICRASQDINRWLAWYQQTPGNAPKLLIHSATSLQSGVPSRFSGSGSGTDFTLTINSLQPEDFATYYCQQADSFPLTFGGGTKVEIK
MEASURED_RESULT: 0.04 fold
//
BINDER: C5A (XPA23) VL D28F (antibody, V domains shown) VH: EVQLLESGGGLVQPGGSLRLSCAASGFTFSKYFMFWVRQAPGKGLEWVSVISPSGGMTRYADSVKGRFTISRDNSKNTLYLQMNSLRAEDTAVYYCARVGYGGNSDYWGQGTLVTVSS VL: DIQMTQSPSSVSASVGDRLTIICRASQFINRWLAWYQQTPGNAPKLLIHSATSLQSGVPSRFSGSGSGTDFTLTINSLQPEDFATYYCQQADSFPLTFGGGTKVEIK
MEASURED_RESULT: 1.43 fold
//
BINDER: C5A (XPA23) VL A51H (antibody, V domains shown) VH: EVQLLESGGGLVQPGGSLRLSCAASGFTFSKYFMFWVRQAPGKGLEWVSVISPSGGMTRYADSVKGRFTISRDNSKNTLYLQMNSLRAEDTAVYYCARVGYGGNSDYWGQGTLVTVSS VL: DIQMTQSPSSVSASVGDRLTIICRASQDINRWLAWYQQTPGNAPKLLIHSHTSLQSGVPSRFSGSGSGTDFTLTINSLQPEDFATYYCQQADSFPLTFGGGTKVEIK
MEASURED_RESULT: 0.61 fold
